Biological target: Nrg2 (UniProt P38082)
Sequence: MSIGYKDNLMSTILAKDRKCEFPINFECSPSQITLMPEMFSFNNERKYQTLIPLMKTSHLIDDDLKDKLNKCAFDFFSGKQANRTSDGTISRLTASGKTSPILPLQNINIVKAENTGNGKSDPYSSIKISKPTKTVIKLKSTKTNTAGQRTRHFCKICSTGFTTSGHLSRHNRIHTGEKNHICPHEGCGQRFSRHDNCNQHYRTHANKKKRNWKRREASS
Assay: PBM E-score (8-mer binding enrichment) (E-score (-0.5 to 0.5)); higher = stronger / more preferred TF binding
Conditions: protein concentration: 100 nM; construct: GST-full length
Whole data set: some 33,000 sequences, median “E-score (-0.5 to 0.5)” near -8e-05, cut for the highest 2% near 0.23. The list comes from a sample in which the highest values are over-represented; it also holds close analogues and randomly drawn sequences.
Note that class boundaries on PBM E-score are L: < -0.04; M: ≥ -0.04 and < 0.1; H: ≥ 0.1

entry-sequence	tested-target	classification
CCCCTGGC	Nrg2 (UniProt P38082)	H
ACCCTGGC	Nrg2 (UniProt P38082)	H
AACCTGGG	Nrg2 (UniProt P38082)	L
CCCCTGGA	Nrg2 (UniProt P38082)	M
AGCCTGGG	Nrg2 (UniProt P38082)	L
AGGGGTAC	Nrg2 (UniProt P38082)	H
ATTTAGTC	Nrg2 (UniProt P38082)	M
GCCGGATA	Nrg2 (UniProt P38082)	M
CCGGGAAC	Nrg2 (UniProt P38082)	M
GGATACAA	Nrg2 (UniProt P38082)	M
CATTAGTA	Nrg2 (UniProt P38082)	H
ATGAATGG	Nrg2 (UniProt P38082)	H
GCCCTGGA	Nrg2 (UniProt P38082)	H
CACTGAGC	Nrg2 (UniProt P38082)	L
AAATGCTA	Nrg2 (UniProt P38082)	M
AAGTGAGC	Nrg2 (UniProt P38082)	L
AACCTGGC	Nrg2 (UniProt P38082)	L
AAGGAGAC	Nrg2 (UniProt P38082)	L
AAGCTAAT	Nrg2 (UniProt P38082)	H
ACTATGAG	Nrg2 (UniProt P38082)	L
AATTAGTA	Nrg2 (UniProt P38082)	H
